Each entry below carries its recorded DC50.
- EXPERIMENTAL TARGET: IRAK4 (Homo sapiens)
- Construct: endogenous in cells; host or cells: OCI-LY10
- EXPERIMENT: IRAK4 MSD Degradation in OCI-LY10
- Format: cell-based
- COND: OCI-LY10 cells, 4 hrs incubation, read-out: IRAK4 degradation in OCI-LY10 at 4 hrs: DC50

Before answering, review these 2 worked examples.
[[record]]
compound = "COc1cc2nn([C@H]3CC[C@H](CN4C[C@H]5CC[C@@H](C4)N5c4cccc5c4n(C)c(=O)n5C4CCC(=O)NC4=O)CC3)cc2cc1NC(=O)c1cccc(C(F)(F)F)n1 (stereo partly drawn) [I-284]"
experimental_target = "IRAK4 (Homo sapiens)"
reported_value = "50 to 100 nM"

[[record]]
compound = "COc1cc2nn([C@H]3CC[C@H](CN4CCC(CCc5cccc6c5n(C)c(=O)n6C5CCC(=O)NC5=O)CC4)CC3)cc2cc1NC(=O)c1cccc(C(F)(F)F)n1 (stereo partly drawn) [I-242]"
experimental_target = "IRAK4 (Homo sapiens)"
reported_value = "< 50 nM"


Consider now this further compound.
The reported value for Cn1c(=O)n(C2CCC(=O)NC2=O)c2cccc(CN3CC4(C3)CN(C(=O)[C@H]3CC[C@H](n5cc6cc(NC(=O)c7cccc(C(F)(F)F)n7)c(C(C)(C)O)cc6n5)CC3)C4)c21 (stereo partly drawn) [I-45] in terms of DC50 is 50 to 100 nM

----------
- EXPERIMENTAL TARGET: IRAK4 (Homo sapiens)
- Construct: endogenous in cells; host or cells: OCI-LY10
- Sequence (Q9NWZ3 1-460): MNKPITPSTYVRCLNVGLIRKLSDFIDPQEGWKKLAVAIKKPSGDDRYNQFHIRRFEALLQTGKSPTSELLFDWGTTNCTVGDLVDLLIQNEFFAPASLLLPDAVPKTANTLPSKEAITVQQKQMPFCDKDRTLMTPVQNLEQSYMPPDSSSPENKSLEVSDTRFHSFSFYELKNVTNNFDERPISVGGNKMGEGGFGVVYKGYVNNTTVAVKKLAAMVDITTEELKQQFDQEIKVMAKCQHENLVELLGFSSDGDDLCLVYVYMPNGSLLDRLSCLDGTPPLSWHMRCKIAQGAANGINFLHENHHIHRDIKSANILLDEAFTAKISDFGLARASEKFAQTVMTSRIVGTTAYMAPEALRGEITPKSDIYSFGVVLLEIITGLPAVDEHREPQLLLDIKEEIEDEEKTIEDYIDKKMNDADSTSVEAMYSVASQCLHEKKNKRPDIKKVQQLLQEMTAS
- EXPERIMENT: IRAK4 MSD Degradation in OCI-LY10
- Format: cell-based
- COND: OCI-LY10 cells, 4 hrs incubation, read-out: IRAK4 degradation in OCI-LY10 at 4 hrs: DC50
Known DC50 of a selection of compounds

Some solved cases for reference:
[[record]]
compound = "CN(C[C@H]1CC[C@H](n2cc3cc(NC(=O)c4cccc(C(F)(F)F)n4)c(C(F)F)cc3n2)CC1)C1CCC2(CC1)CC(Cc1cccc3c1n(C)c(=O)n3C1CCC(=O)NC1=O)C2 (some centres unmarked)"
reported_value = "50 to 100 nM"

[[record]]
compound = "Cn1c(=O)n(C2CCC(=O)NC2=O)c2ccc(N3CCN(C[C@H]4CC[C@H](n5cc6cc(NC(=O)c7cccc(C(C)(C)F)n7)c(C(F)F)cc6n5)CC4)CC3)cc21 (some centres unmarked)"
reported_value = "50 to 100 nM"

[[record]]
compound = "Cn1c(=O)n(C2CCC(=O)NC2=O)c2cccc(N3CCN(C[C@H]4CC[C@H](n5cc6cc(NC(=O)c7cccc(C(C)(C)F)n7)c(C(F)F)cc6n5)CC4)CC3)c21 (some centres unmarked)"
reported_value = "50 to 100 nM"


Value of measured DC50 for the entry Cn1c(=O)n(C2CCC(=O)NC2=O)c2cccc(CN3CCOC4(CCN(Cc5ccc(-n6cc7cc(NC(=O)c8cccc(C(F)(F)F)n8)c(C(C)(C)O)cc7n6)cc5)CC4)C3)c21 (centres unmarked) : 50 to 100 nM

Form field DC50, entry Cn1c(=O)n(C2CCC(=O)NC2=O)c2cccc(CN3CC4(CCN(C[C@H]5CC[C@H](n6cc7cc(NC(=O)c8cccc(C(F)(F)F)n8)c(C(C)(C)O)cc7n6)CC5)CC4)C3)c21 (some centres unmarked) : < 50 nM
